Source: patent US20240116985A1

# protocolSummary: Solubility in PBS
# Assay type: physicochemical
# measurementConditions: Solubility (uM)
Catalogue of Solubility readings, one per entry.
measure: Solubility (µM)

{"columns": ["compound", "recordedResult"],
 "data": [
  ["CC(=O)N1CCC[C@]12CC=CCCCC1(CCCC=CCCCOC(=O)N3CC[C@@](C(=O)N[C@@H](Cc4ccccc4)C(=O)N[C@@H](Cc4csc5ccccc45)C(=O)N[C@@H](CCC(N)=O)C(N)=O)(C3)NC(=O)[C@H](CC(N)=O)NC(=O)[C@H](Cc3ccccc3)NC(=O)[C@H](C)NC(=O)[C@H](C)NC(=O)[C@H](CCC(=O)O)NC(=O)[C@H](CC(=O)O)NC1=O)NC(=O)[C@H](C)NC(=O)[C@H](CC(=O)O)NC2=O (stereo partly shown)", 49],
  ["CC(=O)N1CCC[C@]12CC=CCCCC1(CCCC=CCCCOC(=O)N3CC[C@@](C(=O)N[C@@H](Cc4ccccc4Cl)C(=O)N[C@@H](Cc4csc5ccccc45)C(=O)N[C@H](CO)[C@@H](C)O)(C3)NC(=O)[C@H](CC(N)=O)NC(=O)[C@H](Cc3ccccc3)NC(=O)[C@H](C)NC(=O)[C@H](C)NC(=O)[C@H](CC(=O)O)NC(=O)[C@H](CC(=O)O)NC1=O)NC(=O)[C@H](CC(C)(C)C)NC(=O)[C@H](CC(=O)O)NC2=O (stereo partly shown)", 48],
  ["CC(=O)N1CCC[C@]12CC=CCCCC1(CCCC=CCCCOC(=O)N3CC[C@@](C(=O)N[C@@H](Cc4ccccc4F)C(=O)N[C@@H](Cc4csc5ccccc45)C(=O)N[C@@H](CCC(N)=O)C(N)=O)(C3)NC(=O)[C@H]([C@@H](C)O)NC(=O)[C@H](Cc3ccccc3)NC(=O)[C@H](C)NC(=O)[C@H](C)NC(=O)[C@H](CC(N)=O)NC(=O)[C@H](CC(=O)O)NC1=O)NC(=O)[C@H](CC(C)(C)C)NC(=O)[C@H](CC(=O)O)NC2=O (stereo partly shown)", 20],
  ["CC(=O)N1CCC[C@]12CC=CCCCC1(CCCC=CCCCOC(=O)N3CC[C@@](C(=O)N[C@@H](Cc4ccccc4Cl)C(=O)N[C@@H](Cc4csc5ccccc45)C(=O)N[C@@H](CO)C(N)=O)(C3)NC(=O)[C@H]([C@@H](C)O)NC(=O)[C@H](Cc3ccccc3)NC(=O)[C@H](C)NC(=O)[C@H](C)NC(=O)[C@H](CC(=O)O)NC(=O)[C@H](CC(=O)O)NC1=O)NC(=O)[C@H](Cc1ccccc1)NC(=O)[C@H](CC(=O)O)NC2=O (stereo partly shown)", 48]
]}
